Test system: Staphylococcus aureus strains (MRSA, hVISA, VISA, VRSA, quinolone-resistant MRSA)
assay notes: MIC by agar dilution against Staphylococcal strains (MRSA, hVISA, VISA, VRSA, quinolone-resistant MRSA)
Type: cell-based
assay conditions: Staphylococcus aureus, hVISA(2) + VISA (24) + VRSA (5)
Examples of molecules with documented MIC90 follow.
The reply should be a number in µg/mL, with the unit left off.

For orientation, consider the following solved cases.
{"molecule": "CC(=O)NC[C@H]1CN(c2ccc(N3CCOCC3)c(F)c2)C(=O)O1 [Linezolid]", "units text": "µg/mL", "MIC90": 1}
{"molecule": "CN[C@H](CC(C)C)C(=O)N[C@H]1C(=O)N[C@@H](CC(N)=O)C(=O)N[C@H]2C(=O)N[C@H]3C(=O)N[C@H](C(=O)N[C@H](C(=O)O)c4cc(O)cc(O)c4-c4cc3ccc4O)[C@H](O)c3ccc(c(Cl)c3)Oc3cc2cc(c3O[C@@H]2O[C@H](CO)[C@@H](O)[C@H](O)[C@H]2O[C@H]2C[C@](C)(N)[C@H](O)[C@H](C)O2)Oc2ccc(cc2Cl)[C@H]1O [Vancomycin]", "units text": "µg/mL", "MIC90": 32}
{"molecule": "C[C@H]1COc2c(N3CCN(C)CC3)c(F)cc3c(=O)c(C(=O)O)cn1c23 [Levofloxacin]", "units text": "µg/mL", "MIC90": 32}
{"molecule": "CN(C)c1cc(NC(=O)CNC(C)(C)C)c(O)c2c1C[C@H]1C[C@H]3[C@H](N(C)C)C(O)=C(C(N)=O)C(=O)[C@@]3(O)C(O)=C1C2=O [Tigecycline]", "units text": "µg/mL", "MIC90": 0.5}
{"molecule": "COc1c(N2C[C@@H]3CCCN[C@@H]3C2)c(F)cc2c(=O)c(C(=O)O)cn(C3CC3)c12 [Moxifloxacin]", "units text": "µg/mL", "MIC90": 8}
{"molecule": "CCCCCCCCCC(=O)N[C@@H](Cc1c[nH]c2ccccc12)C(=O)N[C@H](CC(N)=O)C(=O)N[C@@H](CC(=O)O)C(=O)N[C@@H]1C(=O)NCC(=O)N[C@@H](CCCN)C(=O)N[C@@H](CC(=O)O)C(=O)N[C@H](C)C(=O)N[C@@H](CC(=O)O)C(=O)NCC(=O)N[C@H](CO)C(=O)N[C@@H]([C@H](C)CC(=O)O)C(=O)N[C@@H](CC(=O)c2ccccc2N)C(=O)O[C@@H]1C [Daptomycin]", "units text": "µg/mL", "MIC90": 2}

Alright, here's another molecule for you.
Task: Tell me MIC90 of COc1c(N2C[C@@H](C)C[C@H](N)C2)ccc2c(=O)c(C(=O)O)cn(C3CC3)c12 [Compound 1] when tested on Staphylococcus aureus strains (MRSA, hVISA, VISA, VRSA, quinolone-resistant MRSA).
Result: 2

====

Test system: Methicillin-resistant Staphylococcus aureus (MRSA) isolates
assay notes: MIC by broth microdilution (CLSI) against CAN-ICU MRSA isolates
Format: cell-based
assay conditions: Staphylococcus aureus; MRSA (n = 193); read-out: MIC90
assay readout: MIC90

For orientation, consider the following solved cases.
{"molecule": "CCCCCCCCCC(=O)N[C@@H](Cc1c[nH]c2ccccc12)C(=O)N[C@H](CC(N)=O)C(=O)N[C@@H](CC(=O)O)C(=O)N[C@@H]1C(=O)NCC(=O)N[C@@H](CCCN)C(=O)N[C@@H](CC(=O)O)C(=O)N[C@H](C)C(=O)N[C@@H](CC(=O)O)C(=O)NCC(=O)N[C@H](CO)C(=O)N[C@@H]([C@H](C)CC(=O)O)C(=O)N[C@@H](CC(=O)c2ccccc2N)C(=O)O[C@@H]1C [Daptomycin]", "MIC90": "0.5 µg/mL"}
{"molecule": "Cc1nnc(SCC2=C(C(=O)O)N3C(=O)[C@@H](NC(=O)Cn4cnnn4)[C@H]3SC2)s1 [Cefazolin]", "MIC90": "> 128 µg/mL"}
{"molecule": "CC[C@H]1OC(=O)[C@H](C)[C@@H](O[C@H]2C[C@@](C)(OC)[C@@H](O)[C@H](C)O2)[C@H](C)[C@@H](O[C@@H]2O[C@H](C)C[C@H](N(C)C)[C@H]2O)[C@](C)(OC)C[C@@H](C)C(=O)[C@H](C)[C@@H](O)[C@]1(C)O [Clarithromycin]", "MIC90": "> 32 µg/mL"}
{"molecule": "CCC[C@@H]1C[C@@H](C(=O)N[C@@H]([C@H]2O[C@H](SC)[C@H](O)[C@@H](O)[C@H]2O)[C@H](C)Cl)N(C)C1 [Clindamycin]", "MIC90": "> 8 µg/mL"}

Alright, here's another molecule for you.
Task: Assign MIC90 to the following record: CO/N=C(\C(=O)N[C@@H]1C(=O)N2C(C(=O)O)=C(CSc3nc(=O)c(=O)[nH]n3C)CS[C@H]12)c1csc(N)n1 [Ceftriaxone]
Result: > 64 µg/mL

These data points were gathered from patent US8211909B2.
